Measured Target: STING (Homo sapiens, UniProt Q86WV6, G230A/H232R/R293Q/R71H)
Sequence (Q86WV6 whole entry R71H/G230A/H232R/R293Q): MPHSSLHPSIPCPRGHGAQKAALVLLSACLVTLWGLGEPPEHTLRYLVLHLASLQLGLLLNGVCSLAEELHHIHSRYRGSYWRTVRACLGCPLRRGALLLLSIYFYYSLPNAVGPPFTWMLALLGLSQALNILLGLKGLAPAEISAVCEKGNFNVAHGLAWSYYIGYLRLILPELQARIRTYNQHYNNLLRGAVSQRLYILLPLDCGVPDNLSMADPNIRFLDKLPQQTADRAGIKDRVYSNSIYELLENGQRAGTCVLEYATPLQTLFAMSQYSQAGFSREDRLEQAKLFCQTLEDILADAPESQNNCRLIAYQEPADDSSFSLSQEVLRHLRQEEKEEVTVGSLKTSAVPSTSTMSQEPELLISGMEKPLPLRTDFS
Experiment Summary: STING reporter assay: luciferase reporter activity in THP1-Dual KO-IFNAR2 cells stimulated with 2'3'cGAMP
Conditions: 2′3′cGAMP 15 μM final, 24h, read-out: hSTING: EC50
Can you tell me EC50 for the items I'm about to list?

Task: Please report the recorded EC50 for CC(NC(=O)C(=O)Nc1c[nH]c2cc(F)c(F)cc12)c1cc(C(F)(F)F)c(Cl)cn1 (stereo not shown) [Compound 303] .
Output: 200 to 1000 nM

Task: Record request: EC50 value, item O=C(Nc1c[nH]c2cc(F)c(F)cc12)C(=O)N1CCC(Oc2ccc(C(F)(F)F)cc2)CC1 [Compound 317]
Output: 200 to 1000 nM

Task: Given the entry O=C(NCc1ccc(F)c(OC(F)(F)F)c1)C(=O)Nc1c[nH]c2cc(F)c(F)cc12 [Compound 131] , report its measured EC50.
Output: 200 to 1000 nM

Task: Consider the molecule shown here: O=C(Nc1c[nH]c2cc(F)c(F)cc12)C(=O)N[C@H]1CC[C@H](Oc2ccc(C(F)(F)F)cn2)CC1 [Compound 230] What is its recorded EC50?
Output: 40 to 200 nM

Task: What does the data say about its EC50? Entry: O=C(Nc1c[nH]c2cc(F)c(F)cc12)C(=O)NC1CCOC2(CCCC2)C1 (single isomer, unassigned) [Compound 244]
Output: 1000 to 5000 nM

Task: I am curious: what EC50 value has been reported for O=C(Nc1ccc(C2CCCCC2)nc1)C(=O)Nc1c[nH]c2cc(F)c(F)cc12 [Compound 104] ?
Output: 200 to 1000 nM

Task: Recorded EC50 of Cc1ccc(CNC(=O)C(=O)Nc2c[nH]c3cc(F)c(F)c(Br)c23)cc1C(F)(F)F [Compound 242] , please.
Output: 5000 to 100000 nM

Task: Given the molecule C#Cc1ccc(NC(=O)C(=O)Nc2c[nH]c3cc(F)c(F)cc23)cc1 [Compound 182] , what is its reported EC50?
Output: 200 to 1000 nM

Task: Which value of EC50 has been reported for CN(C)CC(NC(=O)C(=O)Nc1c[nH]c2cc(F)c(F)cc12)c1ccccc1 (stereo not shown) [Compound 308] in the records?
Output: 5000 to 100000 nM

Task: Dear colleague, I am looking for the recorded EC50 of the following molecule: Cc1ccccc1N1C2CCC1CC(NC(=O)C(=O)Nc1c[nH]c3cc(F)c(F)cc13)C2 (stereo not shown) [Compound 254]
Output: 200 to 1000 nM

Task: Look up EC50: O=C(NCc1ccc(C(F)(F)F)c(Cl)c1)C(=O)Nc1c[nH]c2ccccc12 [Compound 171]
Output: 200 to 1000 nM

Task: Look at this molecule and give its reported EC50. O=C(Nc1c[nH]c2cc(F)c(F)cc12)C(=O)NC1CCC(Oc2ccccn2)CC1 (stereo not shown) [Compound 316]
Output: 200 to 1000 nM

Task: Name the reported EC50 value associated with the molecule O=C(Nc1c[nH]c2cc(F)c(F)cc12)C(=O)N[C@H]1CCN(c2ccccc2)C1 [Compound 127]
Output: 40 to 200 nM

Task: Name the reported EC50 value associated with the molecule CC(NC(=O)C(=O)Nc1c[nH]c2cc(F)c(F)cc12)c1ccc(C(F)(F)F)cc1 (single isomer, unassigned) [Compound 330]
Output: 40 to 200 nM

Task: Need EC50 of O=C(NCCC12C[C@H]3C[C@@H](C1)C[C@@H](C2)C3)C(=O)Nc1c[nH]c2cc(F)c(F)cc12 [Compound 188] , thanks.
Output: 200 to 1000 nM

Task: Which EC50 value is on record for O=C(Nc1c[nH]c2cc(F)c(F)cc12)C(=O)NC1CCC2(CCCC2)C1 (stereo not shown) [Compound 279] ?
Output: 200 to 1000 nM

----------
Measured Target: STING (Homo sapiens, UniProt Q86WV6, G230A/H232R/R293Q/R71H)
Experiment Summary: STING reporter assay: luciferase reporter activity in THP1-Dual KO-IFNAR2 cells stimulated with 2'3'cGAMP
Conditions: 2′3′cGAMP 15 μM final, 24h, read-out: hSTING: EC50
Experimental: STING pathway activation by the compounds described herein was measured using THIP1-Dua1™ cells (KO-IFNAR2). […] 2 mL of solution A and 2 ml Solution B was mixed and incubated for 20 min at room temperature (RT). […] Luciferase reporter activity was then measured. EC50 values were calculated by using standard methods known in the art. […] Luciferase reporter activity was then measured. EC50 values were calculated by using standard methods known in the art.
Property Label: EC50

Task: Form entry - test system: STING (Homo sapiens, UniProt Q86WV6, G230A/H232R/R293Q/R71H); read-out: EC50; molecule: "CN(CCNC(=O)C(=O)Nc1c[nH]c2cc(F)c(F)cc12)c1ccccc1"
Output: 200 to 1000 nM

Task: Give the reported EC50 for "O=C(NCC1CCC(F)(F)CC1)C(=O)Nc1c[nH]c2cc(F)c(F)cc12" (system: STING (Homo sapiens, UniProt Q86WV6, G230A/H232R/R293Q/R71H)).
Output: 200 to 1000 nM

Task: Find EC50 (STING (Homo sapiens, UniProt Q86WV6, G230A/H232R/R293Q/R71H)) for the entry "O=C(Nc1c[nH]c2cc(F)c(F)cc12)C(=O)N1CCN(Cc2ccc(C(F)(F)F)cc2)CC1"
Output: 200 to 1000 nM

Task: Give EC50 (STING (Homo sapiens, UniProt Q86WV6, G230A/H232R/R293Q/R71H)) of the following molecule: "C#Cc1cc(NC(=O)C(=O)Nc2c[nH]c3cc(F)c(F)cc23)ccc1Cl"
Output: 200 to 1000 nM

Task: Notebook entry, STING (Homo sapiens, UniProt Q86WV6, G230A/H232R/R293Q/R71H) assay: EC50 of "O=C(NC[C@H]1CC12CCCCC2)C(=O)Nc1c[nH]c2cc(F)c(F)cc12" = ?
Output: 40 to 200 nM

Task: STING (Homo sapiens, UniProt Q86WV6, G230A/H232R/R293Q/R71H) / EC50 / O=C(Nc1c[nH]c2cc(F)c(F)cc12)C(=O)N[C@H]1CCC[C@H](Oc2ccc(C(F)(F)F)cc2)C1 (single isomer, unassigned) : value?
Output: 40 to 200 nM

Task: Find the measured EC50: item "O=C(Nc1ccc(C(F)(F)F)cc1)C(=O)Nc1c[nH]c2ccc(Br)cc12" , target or system STING (Homo sapiens, UniProt Q86WV6, G230A/H232R/R293Q/R71H).
Output: 40 to 200 nM

Task: State its EC50 on STING (Homo sapiens, UniProt Q86WV6, G230A/H232R/R293Q/R71H): CC(C)(C)OC(=O)N1CC2CC(NC(=O)C(=O)Nc3c[nH]c4cc(F)c(F)cc34)CC2C1 (centres unmarked)
Output: 200 to 1000 nM

Task: // fetch STING (Homo sapiens, UniProt Q86WV6, G230A/H232R/R293Q/R71H) EC50 for O=C(Nc1c[nH]c2cc(F)c(F)cc12)C(=O)NC1CCCC2(CCCCC2)C1 (centres unmarked) [Compound 281]
Output: 200 to 1000 nM

Task: Reported EC50 for STING (Homo sapiens, UniProt Q86WV6, G230A/H232R/R293Q/R71H), given CCC(NC(=O)C(=O)Nc1c[nH]c2cc(F)c(F)cc12)c1cccc(C(F)(F)F)c1 (single isomer, unassigned) [Compound 235] ?
Output: 200 to 1000 nM

Task: Lab note: need EC50 for "O=C(NCc1ccccc1C(F)(F)F)C(=O)Nc1c[nH]c2cc(F)c(F)cc12" on STING (Homo sapiens, UniProt Q86WV6, G230A/H232R/R293Q/R71H), anyone have it?
Output: 40 to 200 nM

Task: So what EC50 did "O=C(Nc1c[nH]c2cc(F)c(F)cc12)C(=O)N1CCN(CCc2ccc(C(F)(F)F)cc2)CC1" get with STING (Homo sapiens, UniProt Q86WV6, G230A/H232R/R293Q/R71H)?
Output: 1000 to 5000 nM

Task: API: value(readout=EC50, system=STING (Homo sapiens, UniProt Q86WV6, G230A/H232R/R293Q/R71H)) for record "O=C(NCc1ccc(Cl)cc1C(F)(F)F)C(=O)Nc1c[nH]c2cc(F)c(F)cc12"
Output: 200 to 1000 nM

Task: Lab note: need EC50 for "O=C(NCc1cccc(C(F)(F)F)n1)C(=O)Nc1c[nH]c2cc(F)c(F)cc12" on STING (Homo sapiens, UniProt Q86WV6, G230A/H232R/R293Q/R71H), anyone have it?
Output: 200 to 1000 nM

Task: GET /values?readout=EC50&system=STING (Homo sapiens, UniProt Q86WV6, G230A/H232R/R293Q/R71H)&item= "CC(C)(O)c1cccc(-c2ccc3[nH]cc(NC(=O)C(=O)NCc4ccc(C(F)(F)F)c(Cl)c4)c3c2)c1"
Output: 1000 to 5000 nM

Task: Provide value of EC50 for this record tested with STING (Homo sapiens, UniProt Q86WV6, G230A/H232R/R293Q/R71H): "C[C@H](NC(=O)C(=O)Nc1c[nH]c2cc(F)c(F)cc12)c1ccc(C(F)(F)F)cn1"
Output: 200 to 1000 nM

Task: Query EC50 on STING (Homo sapiens, UniProt Q86WV6, G230A/H232R/R293Q/R71H) for "O=C(NCCOc1cncc(C(F)(F)F)c1)C(=O)Nc1c[nH]c2cc(F)c(F)cc12"
Output: 200 to 1000 nM
